- Target Under Test: MMP-13 (Matrix Metalloproteinase-13, Collagenase-3) (Homo sapiens)
pIC50: −log10 of the molar value.
Result Type: pIC50

The molecule CCCN(CCC)C(=O)CC1SC(c2ccc(Cl)cc2)N(C(CC(C)C)C(=O)NO)C1=O (stereo not shown) [Example 306] showed pIC50 equal to 6.91

1: CCCC(C(=O)NO)N1C(=O)CSC1c1ccc(Oc2ccccc2)cc1 (stereo not shown) [Example 143]
2: O=C(CN1C(=O)C(Cc2cccnc2)Sc2ccccc21)NO (stereo not shown) [Example 423]
3: COc1ccc(C2SC(CC(=O)NO)C(=O)N2CCCc2ccccc2)cc1 (stereo not shown) [Example 13]
Inquiry: Thanks in advance: please rank these 3 entries by pIC50, highest to lowest. Please list the labels in the order you were asked to rank them.
Reply text: 1, 2, 3

* * *

- Target Under Test: MMP-3 (Matrix Metalloproteinase-3, Stromelysin-1) (Homo sapiens, UniProt P08254)
- Construct: C-terminal truncated form of human prostromelysin cDNA
- Sequence (P08254 100-272 limits assumed): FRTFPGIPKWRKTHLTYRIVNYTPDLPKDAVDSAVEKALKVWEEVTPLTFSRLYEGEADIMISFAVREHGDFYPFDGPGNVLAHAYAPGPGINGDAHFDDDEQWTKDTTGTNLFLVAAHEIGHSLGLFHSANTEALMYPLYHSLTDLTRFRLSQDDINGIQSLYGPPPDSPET
- Assay Name: Inhibition assay against MMP-3 (fluorescent MCA-labeled substrate)
- Condition Description: Table 10; active MMP at 20 nM, 37° C., 1.5 hours; read-out: IC50 MMP3
Result Type: IC50 (nM)

Consider the reported IC50 for these compounds:
// IC50 (MMP-3 (Matrix Metalloproteinase-3, Stromelysin-1) (Homo sapiens, UniProt P08254)) for O=C(CN1C(=O)C(Cc2cccnc2)Sc2ccccc21)NO (centres unmarked) = 5130

IC50 on MMP-3 (Matrix Metalloproteinase-3, Stromelysin-1) (Homo sapiens, UniProt P08254) for Cc1ccc(CC2Sc3ccccc3N(CC(=O)NO)C2=O)cc1 (centres unmarked) is 433

Value sought: IC50, system MMP-3 (Matrix Metalloproteinase-3, Stromelysin-1) (Homo sapiens, UniProt P08254), item CC(C)CC(C(=O)NO)N1C(=O)CSC1c1ccc(Cl)cc1 (centres unmarked) . Result: 1140

I: COc1ccc(CC2Sc3ccccc3N([C@H](C(=O)NO)C(C)C)C2=O)cc1 (some centres unmarked)
II: COc1ccc(C2SCC(=O)N2C(CCSC)C(=O)NO)cc1F (centres unmarked)
Inquiry: Hi team, can someone confirm which has the larger IC50: I or II ? Thanks. Provide the label of your selected option as the answer.
Reply text: II

* * *

- Target Under Test: MMP-13 (Matrix Metalloproteinase-13, Collagenase-3) (Homo sapiens)
Result Type: IC50 (nM)

Below, each entry is followed by its recorded IC50 result.
Given item COc1ccc(CC2Sc3cc(C(=O)N[C@H](CO)CC(C)C)ccc3N(CC(=O)NO)C2=O)cc1 (stereo partly drawn) , the value recorded as its IC50 is 4.9

Field IC50 (entry COc1ccc(C2SCC(=O)N2C(Cc2ccc(OC(C)(C)C)cc2)C(=O)NO)cc1 (stereo not drawn) ) reads 43

For this molecule ( O=C(CN1C(=O)C(=Cc2ccccn2)Sc2ccccc21)NO ), measured IC50 is 16000

Value of IC50 reported for the molecule Cc1cc(NC(=O)CC2SC(c3ccc(Cl)cc3)N(C(Cc3ccc(OC(C)(C)C)cc3)C(=O)NO)C2=O)no1 (stereo not drawn) is 106

Documented IC50 of COc1ccc(CC2Sc3cc(C)c(C)cc3N(CC(=O)NO)C2=O)cc1 (stereo not drawn) : 13

P: CC(C)CC(C(=O)NO)N1C(=O)C(CC(=O)NCc2ccco2)SC1c1ccc(Cl)cc1 (stereo not drawn)
Q: COCCNC(=O)CC1C(=O)N(C(CC(C)C)C(=O)NO)C(c2ccc(Oc3ccc(Cl)cc3)cc2)[S+]1[O-] (stereo not drawn)
R: COc1ccc(C2SCC(=O)N2C(CCSC)C(=O)NO)cc1F (stereo not drawn)
Inquiry: Output the entries ranked by IC50 from maximum down to minimum. Sort and list the labels as requested.
Reply text: R, P, Q

Attribution: patent US6713477B1
